From: ChEMBL document CHEMBL2203270

Documented CC50 across a set of compounds
Assay: Cytotoxicity against mock-infected human MT4 cells assessed as decrease in cell viability by MTT assay
Type: cell-based
Express your answer in µM, writing the number without its unit.

Previously resolved entries follow.
{"compound": "COc1cc2c(cc1OC)C1=NN(C(=O)Nc3ccc(F)c(Cl)c3)C(c3ccccc3Cl)C1C2 (centres undefined)", "assay_value": 11.8}
{"compound": "COc1cc2c(cc1OC)C1=NN(C(=O)Nc3ccc(F)c(Cl)c3)C(c3ccccc3)C1C2 (centres undefined)", "assay_value": 35.8}

Problem: # query: CC50 of entry COc1ccc(C2C3Cc4cc(OC)c(OC)cc4C3=NN2C(N)=O)cc1 (centres undefined)
Solution: 150

Problem: Field request: CC50 | item: COc1cc2c(cc1OC)C1=NN(C(=O)Nc3ccc(Cl)cc3)C(c3ccc(F)cc3)C1C2 (centres undefined)
Solution: 25.8
